Recorded values, source ChEMBL document CHEMBL3885881.

Please provide measured CREATINE PHOSPHOKINASE for the entries that follow.
Species on record: Rattus norvegicus
Experiment: DrugMatrix - Regimen: Daily Repeat
Type: toxicity, organism-based, Sprague-Dawley
Set-up: regimen Daily Repeat, gender Male, age 6-8 weeks
Conditions: in vivo, po, 0 mg/kg, 120 h, tissue Plasma, route oral GAVAGE, dose level Control, time 5 day, […]
Give bare numbers, in u/L.

Please review the entries below; each comes with its answer.
Just so you know, measured CREATINE PHOSPHOKINASE for C[C@H]1O[C@@H](O[C@H]2[C@@H](O)C[C@H](O[C@H]3[C@@H](O)C[C@H](O[C@H]4CC[C@@]5(C)[C@H](CC[C@@H]6[C@@H]5CC[C@]5(C)[C@@H](C7=CC(=O)OC7)CC[C@]65O)C4)O[C@@H]3C)O[C@@H]2C)C[C@H](O)[C@@H]1O came out at 167.33

Just so you know, measured CREATINE PHOSPHOKINASE for CCCCCCCCc1ccc(O)cc1 came out at 386.17

Just so you know, measured CREATINE PHOSPHOKINASE for Clc1ccc(Cl)cc1 came out at 391.67

Just so you know, measured CREATINE PHOSPHOKINASE for CC(C)(Oc1ccc(C2CCCc3ccccc32)cc1)C(=O)O (centres undefined) came out at 281.67

Just so you know, measured CREATINE PHOSPHOKINASE for CC(C)Cc1ccc(C(C)C(=O)O)cc1 (centres undefined) came out at 355.33

Go through the items and report each one's CREATINE PHOSPHOKINASE.
1. C[C@]12CC[C@@H]3c4ccc(O)cc4CC[C@H]3[C@@H]1CC[C@@H]2O
2. CC(=O)Nc1ccc(O)cc1

1: 263.67; 2: 256.17

Go through the items and report each one's CREATINE PHOSPHOKINASE.
1. CC/C(=C(/CC)c1ccc(O)cc1)c1ccc(O)cc1
2. CCOC(=O)C1=C(C)NC(C)=C(C(=O)OC)C1c1cccc([N+](=O)[O-])c1 (centres undefined)
3. COCCOC(=O)C1=C(C)NC(C)=C(C(=O)OC(C)C)C1c1cccc([N+](=O)[O-])c1 (centres undefined)
4. COc1ccc2[nH]c([S+]([O-])Cc3ncc(C)c(OC)c3C)nc2c1 (centres undefined)
5. CC(=O)Nc1cccc(O)c1

411.33
287.17
287.17
310.67
317.17

Go through the items and report each one's CREATINE PHOSPHOKINASE.
1. O=NN(CCCl)C(=O)NCCCl
2. Cc1cccc(Nc2ccncc2S(=O)(=O)NC(=O)NC(C)C)c1 [TORSEMIDE]

1. 256.17
2. 263.67

====

Organism: Rattus norvegicus
Experiment: DrugMatrix - Regimen: Daily Repeat
Type: toxicity, organism-based, Sprague-Dawley
Set-up: regimen Daily Repeat, gender Male, age 6-8 weeks
Conditions: in vivo, po, 0 mg/kg, 72 h, tissue Plasma, route oral GAVAGE, dose level Control, time 3 day, vehicle .5 % CMC
Please provide measured CARBON DIOXIDE for the entries that follow.

Just so you know, measured CARBON DIOXIDE for C[C@]1(Cn2ccnn2)[C@H](C(=O)O)N2C(=O)C[C@H]2S1(=O)=O came out at 27.5 mmol/L

Just so you know, measured CARBON DIOXIDE for CC(=O)CC(c1ccccc1)c1c(O)c2ccccc2oc1=O (centres undefined) came out at 27 mmol/L

Just so you know, measured CARBON DIOXIDE for OC(CCN1CCCCC1)(c1ccccc1)C1CCCCC1 (centres undefined) came out at 29.17 mmol/L

Continue with the next compound.
Just so you know, measured CARBON DIOXIDE for Clc1ccc2c(c1)C(N1CCNCC1)=Nc1ccccc1O2 came out at 24.83 mmol/L
